Values compiled from patent US12296012.

Target: T1, human FLT3 (human, UniProt P36888 27-541, limits assumed)
T1 construct: Soluble analyte hFLT3 in SPR; also called hFLT3; huFlt3
T1 sequence: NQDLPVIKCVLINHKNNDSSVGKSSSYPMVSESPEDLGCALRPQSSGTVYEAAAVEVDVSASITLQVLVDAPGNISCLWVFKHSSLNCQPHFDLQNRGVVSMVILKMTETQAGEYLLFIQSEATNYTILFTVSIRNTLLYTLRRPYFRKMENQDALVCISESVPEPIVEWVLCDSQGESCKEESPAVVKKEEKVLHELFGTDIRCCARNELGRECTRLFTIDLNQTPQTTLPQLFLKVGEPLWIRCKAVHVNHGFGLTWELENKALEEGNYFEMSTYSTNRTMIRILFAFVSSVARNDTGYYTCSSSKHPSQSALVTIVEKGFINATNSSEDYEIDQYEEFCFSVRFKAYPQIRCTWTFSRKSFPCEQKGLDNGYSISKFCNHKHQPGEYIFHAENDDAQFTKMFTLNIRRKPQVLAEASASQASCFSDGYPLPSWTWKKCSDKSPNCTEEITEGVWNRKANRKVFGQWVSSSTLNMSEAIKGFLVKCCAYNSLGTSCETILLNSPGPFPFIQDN
Assay: SPR Biacore T200, 37C; scFv format
Values of Kd strictly less than 10 nM map to YES, and values of at least 10 nM map to NO.

These solved cases illustrate the format of a correct answer.
Input P4C7 (scFv format) (scFv, not shown: a dimerising Fc or GST; small tags and cut ends) scFv: QVQLVQSGAEVKKPGSSVKVSCKASGGTFSSYTISWVRQAPGQGLEWMGGIIPAFGIANYAQKFQGRVTITADKSTSTAYMELSSLRSEDTAVYYCAKGGSYSLDYFDIWGQGTLVTVSSGGGGSGGGGSGGGGSEIVLTQSPGTLSLSPGERATLSCRASQYVSASLLAWYQQKPGQAPRLLIYGASTRATGIPDRFSGSGSGTDFTLTISRLEPEDFAVYYCQQYARSSTFGQGTKVEIK ; condition: Kd strictly below 10 nM. Does it hold?
NO

In plain terms, does P7F9 (scFv format) (scFv) scFv: EVQLLESGGGLVQPGGSLRLSCAASGFTFSSYAMSWVRQAPGKGLEWVSAIGGSGGSTYYADSVKGRFTISRDNSKNTLYLQMNSLRAEDTAMYYCARDYYAFSDPAYGGMDVWGQGTLVTVSSGGGGSGGGGSGGGGSNFMLTQPHSVSESPGKTVTISCTRSSGSIASNYVQWYQQKPGQAPVLVVYDDSDRPSGIPERFSGSNSGNTATLTISRVEAGDEADYYCQVWDSSSDHWVFGGGTKLTVL come in under 10 nM for Kd?
NO

---
Lab note: Kd threshold 10 nM. Does this binder come in strictly under it? P5F7 (scFv format) (scFv) scFv: EVQLLESGGGLVQPGGSLRLSCAASGFTFSSYAMNWVRQAPGKGLEWVSSISGGGRSTYYADSVKGRFTISRDNSKNTLYLQMNSLRAEDTAVYYCARDLSPSDVGWGYGFDIWGQGTLVTVSSGGGGSGGGGSGGGGSEIVLTQSPATLSLSPGERATLSCRASQSVSSNLAWYQQKPGQAPRLLIYDTFTRATGIPARFSGSGSGTDFTLTISRLEPEDFAVYYCQQYGSSPPTFGQGTRLEIK
YES

Could you please tell me whether Kd recorded for P7H3 (scFv format) (scFv, not shown: a dimerising Fc or GST; small tags and cut ends) scFv: EVQLLESGGGLVQPGGSLRLSCAASGFTFSSYAMHWVRQAPGKGLEWVSAISGSGGSTYYADSVKGRFTISRDNSKNTLYLQMNSLRAEDTAVYYCARGTRWWWGDAFDHWGQGTLVTVSSGGGGSGGGGSGGGGSQSVLTQPPSVSVAPGKTARITCGGNNIGSKSVHWYQQKPGQAPVLVIYYDSDRPSGIPERFSGSNSGNTATLTISRVEAGDEADYYCQVWDSSTAWVFGGGTKLTVL is less than 10 nM?
YES

Strictly below 10 nM in Kd? P1B11 (scFv format) (scFv, not shown: a dimerising Fc or GST; small tags and cut ends) scFv: QVQLVQSGAEVKKPGSSVKVSCKASGGTFRSFDISWVRQAPGQGLEWMGRIIPILGYANYAQKFQGRVTITADESTSTAYMELSSLRSEDTAVYYCASDLGAPWAGYPFDPWGQGTLVTVSSGGGGSGGGGSGGGGSEIVLTQSPGTLSLSPGERATLSCRASQSVSSSELAWYQQKPGQAPRLLIYDASSRATGIPDRFSGSGSGTDFTLTISRLEPEDFAVYYCQQYDSSPLTFGQGTKVEIK
NO
